# PROTOCOL SUMMARY: qHTS Assay for inhibitors of the human cytomegalovirus (HCMV); also: % is scaled to controls: 0 for no effect and ±100 for the full control effect
# RUN PARAMETERS: HFF cells, HCMV-luciferase reporter, 72 h; at 57.5 µM; active compounds read low
The campaign covered roughly 410,000 compounds. About 18,000 (4.4%) were called active. Another 7% or so got no clear call; they are omitted. Only a selection was taken, and actives are over-represented in it overall.
READOUT TYPE: activity change, negative = inhibition

- MOLECULE: "NS(=O)(=O)c1ccc(CNC(=O)c2cc(S(=O)(=O)N3CCOCC3)ccc2N2CCCC2)cc1"
  activity change, negative = inhibition: "-10.4% (inactive)"
- MOLECULE: "Brc1ccc(-c2n(-c3ccccn3)c3ccccc3[n+]2-c2ccccn2)cc1"
  activity change, negative = inhibition: "-11.9% (inactive)"

Input COC(=O)[C@@]1(Cc2ccc(F)cc2)[C@H]2c3cc(C(=O)N4CCCC4)n(C[C@H](O)CO)c3C[C@H]2CN1C(=O)c1ccccc1 , output reported activity change, negative = inhibition.
5.98% (inactive)

Indicate the recorded activity change, negative = inhibition value for this molecule: Cc1cccc(NC(=O)C2CCCN2S(=O)(=O)c2cccc3nsnc23)c1C (stereo not drawn)
31.6% (inactive)

Note activity change, negative = inhibition for the molecule shown: CC1CC(C)CN(S(=O)(=O)c2ccc(C(=O)NN3CCOCC3)cc2)C1 (stereo not drawn)
-27.9% (inactive)

Answer with the recorded activity change, negative = inhibition of CC1CCCN(S(=O)(=O)c2ccc(C(=O)Nc3nnc(-c4ccncc4)o3)cc2)C1 (stereo not drawn) only.
-96.5% (active)

----------
# PROTOCOL SUMMARY: qHTS Assay for inhibitors of the human cytomegalovirus (HCMV); also: % is scaled to controls: 0 for no effect and ±100 for the full control effect
# RUN PARAMETERS: HFF cells, HCMV-luciferase reporter, 72 h; at 57.5 µM; active compounds read low
In all, about 410,000 compounds went through this assay and about 18,000 (4.4%) were called active. About 7% were inconclusive and are not listed. The sample holds actives, similar compounds and a random draw of the others, so the mix is not that of the screen.
Lab note: compare activity change, negative = inhibition with 20%, writing y if less and n if equal or more.

Example results:
- COMPOUND: "N/C(=N\\OC(=O)CCc1ccccc1)c1ccc(Cl)cc1"
  CATEGORY LABEL: "y"
- COMPOUND: "Cc1cc(Cl)ccc1OCC(=O)N(Cc1ccc(N(C)C)cc1)C1CCS(=O)(=O)C1 (stereo not given)"
  CATEGORY LABEL: "y"
- COMPOUND: "COCCCNC(=O)[C@H]1N2C(=O)c3ccccc3C2SC1(C)C (stereo not given in full)"
  CATEGORY LABEL: "n"
- COMPOUND: "CCOc1ccc(N(CC(=O)NCCc2ccc(OC)cc2)S(C)(=O)=O)cc1"
  CATEGORY LABEL: "y"

Field: below-cutoff. Rule: recorded activity change, negative = inhibition strictly less than 20%. Subject: CCOC(=O)c1ccc2c(c1)N(Cc1cccc(OC)c1)C(=O)c1ccccc1S2(=O)=O
n

----------
# PROTOCOL SUMMARY: qHTS Assay for inhibitors of the human cytomegalovirus (HCMV); also: % is scaled to controls: 0 for no effect and ±100 for the full control effect
# RUN PARAMETERS: HFF cells, HCMV-luciferase reporter, 72 h; at 57.5 µM; active compounds read low
The whole screen tested about 410,000 compounds, of which about 18,000 (4.4%) were called active. Roughly 7% stayed inconclusive and do not appear here. The sample holds actives, similar compounds and a random draw of the others, so the mix is not that of the screen.
READOUT TYPE: activity change, negative = inhibition (%)
The response must be a number in % with no trailing unit.

- COMPOUND: "Cc1nc(SCC(=O)N2CCN(c3ccccc3)CC2)[nH]c(=O)c1C"
  READOUT TYPE: "activity change, negative = inhibition"
  RECORDED MEASUREMENT: 17.7
- COMPOUND: "CCOC(=O)CSc1ncc(-c2cccc(Cl)c2)cn1"
  READOUT TYPE: "activity change, negative = inhibition"
  RECORDED MEASUREMENT: 23.7

Check the records and state activity change, negative = inhibition for COc1ccc(CNC(=O)c2ccc3c(c2)nc2n3CCOC2)c(OC)c1
2.67

Return reported activity change, negative = inhibition. Input compound: c1ccc(C(=NNc2nc3ccccc3s2)c2ccccn2)cc1
-99.2

Recall and state the measured activity change, negative = inhibition for CC(Cc1ccccc1)NCCC(c1ccccc1)c1ccccc1 (stereo not given) .
-91.4

----------
# PROTOCOL SUMMARY: qHTS Assay for inhibitors of the human cytomegalovirus (HCMV); also: % is scaled to controls: 0 for no effect and ±100 for the full control effect
# RUN PARAMETERS: HFF cells, HCMV-luciferase reporter, 72 h; at 57.5 µM; active compounds read low
Out of some 410,000 compounds screened, about 18,000 (4.4%) were called active. Not shown: some 7% with an inconclusive outcome. The list comes from a sample in which actives are over-represented; it also holds close analogues and randomly drawn compounds.
READOUT TYPE: activity change, negative = inhibition (%)
Report the value in % with no unit label.

- COMPOUND: "N#Cc1nc(COc2ccc(-c3ccccc3)cc2)oc1NCc1cccnc1"
  activity change, negative = inhibition / %: -63.4
- COMPOUND: "Cc1cccc(NC(=O)Nc2cccc(Oc3c(F)c(F)c(F)c(F)c3F)c2)c1"
  activity change, negative = inhibition / %: -76.5
- COMPOUND: "CCn1c(C(=O)Nc2cc(Cl)ccc2C)cc2sc(Cl)cc21"
  activity change, negative = inhibition / %: -25.2
- COMPOUND: "COc1cccc(C2C(C(=O)Nc3ccc(C)cc3C)=C(C)Nc3c(C(=O)Nc4ccccc4)cnn32)c1 (configuration not stated)"
  activity change, negative = inhibition / %: -31.3

Provide measured activity change, negative = inhibition value, entry: CCOc1cccc2c1N[C@@H](c1ccc(C(=O)O)cc1)[C@H]1CC=C[C@@H]21
-5.85

Supply recorded activity change, negative = inhibition for COc1cccc(CNCc2c(C(=O)O)n(Cc3ccc(C)cc3)c3cc(C)ccc23)c1OC here.
3.78

Identify the reported activity change, negative = inhibition for the following entry. CCOC(=O)c1c(C)[nH]c(C)c1S(=O)(=O)N(C)CC(=O)N1CCN(c2ccccc2)CC1
-3.36

Entry COc1ccc(CCNC(=O)CCCCn2c(=O)c3ccccc3n(Cc3ccccc3)c2=O)cc1OC needs its activity change, negative = inhibition filled in; supply it.
-9.1

Using the record for Cc1ccccc1NC(=O)Cn1cc(C(=O)c2cccs2)c2ccccc21 , state its measured activity change, negative = inhibition.
-22.9

Look up and report measured activity change, negative = inhibition for this entry: CCOC(=O)c1c(C)[nH]c2c1-c1ccccc1C(=O)C2=O
-99.7

Report activity change, negative = inhibition, nothing else, for this compound: CCOC(=O)CN1C(C(=O)c2ccccc2)=C(OC(=O)C(C)(C)C)c2ccccc2S1(=O)=O
-14

// Input: CCOc1ccc(-c2nonc2NC(=O)c2oc3ccc(C)cc3c2C)cc1OCC . Output its activity change, negative = inhibition only.
5.37

Specify measured activity change, negative = inhibition for CCC(=O)N1CCc2cc(Br)cc(S(=O)(=O)CCC(=O)NCc3ccccc3OC)c21 .
-3.98

Provide only the value of recorded activity change, negative = inhibition for COc1ccc(OC)c(CCNC(=O)CCCn2c(=O)c3cccn3c3cccnc32)c1
6.58

Look up activity change, negative = inhibition of COc1ccc(CCC(=O)NCCc2csc(-c3ccc(Cl)cc3)n2)cc1 and report it.
7.81

Consider the compound CCCCNC(=O)c1nc(C2CCN(S(=O)(=O)c3ccc(F)c(F)c3)CC2)oc1-c1cccc(C(F)(F)F)c1 . State its measured activity change, negative = inhibition.
6.36

Consider the compound N#CCCN(CCC#N)c1nnc(-c2ccccc2)s1 and give its recorded activity change, negative = inhibition.
3.02

----------
# PROTOCOL SUMMARY: qHTS Assay for inhibitors of the human cytomegalovirus (HCMV); also: % is scaled to controls: 0 for no effect and ±100 for the full control effect
# RUN PARAMETERS: HFF cells, HCMV-luciferase reporter, 72 h; at 57.5 µM; active compounds read low
Screen size: about 410,000 compounds; about 18,000 (4.4%) were called active. Inconclusive results (about 7%) are left out. Many of the other results were omitted from the sample, so actives are more common in it than they were.
# activity change, negative = inhibition listing for each entry below
# unit: % | format: bare number

- MOLECULE: "COc1ccc(S(=O)(=O)NCC(c2ccc(N(C)C)cc2)N2CCCC2)cc1 (stereo not drawn)"
  activity change, negative = inhibition [%]: -4.35
- MOLECULE: "Cc1ccc(-n2nc3c(c2NC(=O)CCC2CCCCC2)CS(=O)C3)cc1 (stereo not drawn)"
  activity change, negative = inhibition [%]: -68.2
- MOLECULE: "COCCNC(=O)CSc1nc(-c2ccccc2)[nH]c1-c1ccc(C)cc1"
  activity change, negative = inhibition [%]: -25.2
- MOLECULE: "CN1CN(C)c2ccc([N+](=O)[O-])c3cccc1c23"
  activity change, negative = inhibition [%]: -90
- MOLECULE: "Cc1[nH]c(C)c(S(=O)(=O)N2CCN(c3cccc(C(F)(F)F)c3)CC2)c1C(=O)N1CCCCC1"
  activity change, negative = inhibition [%]: -80.2

Consider the molecule Cc1cccc(Cn2c(SCc3ccc(C(=O)N4CCC(C)CC4)cc3)nc3ccncc32)c1 . State its measured activity change, negative = inhibition.
-62.6

Data provenance is PubChem BioAssay AID1259415.
